Test system: BDF1 mice, B16 melanoma ip, median survival T/C
Assay: NCI In Vivo Anticancer Drug Screen. Data for tumor model B16 Melanoma (intraperitoneal) in B6D2F1 (BDF1) mice
Details: endpoint: median survival time; dose: 6.0 mg/kg/injection; schedule: Q01DX009 (ip); vehicle: saline with Tween-80
Inconclusive results and toxic doses are left out. Rule for the calls: active = survival T/C of 150% or more; inactive = T/C below 125% in these data.
Thanks in advance; please answer with one of these: Y (active), N (inactive)

For orientation, consider the following solved cases.
Problem: What was the test verdict on "CC(=O)[O][Hg][c]1s[c]([Hg][O]C(C)=O)[c]([Hg][O]C(C)=O)[c]1[Hg][O]C(C)=O" ?
Result: N

Problem: What was the test verdict on "c1ccc([Te][Te]c2ccccc2)cc1" ?
Result: N

Here's the next entry for you.
Problem: What was the test verdict on "C/C(=N/NC(N)=S)c1ccc2ccccc2c1" ?
Result: N
